# System: PC-3
# measurement-protocol: NCI tumour cell line growth inhibition, 48 h
Calls of active or inactive are those of the source. Rule as the data show it: active = GI50 up to about 1.1 µM and inactive = higher.
assay-endpoint: GI50

Query :: Identify the measured GI50 of O=C(O)C1C2C=CC(O2)C1C(=O)Nc1ncccn1 (stereo not drawn) for PC-3.
Result :: > 100 µM (inactive)

Query :: Enter reported GI50 observed with PC-3 for `Nc1n[n+]([O-])c2cnccc2[n+]1[O-]`
Result :: 36.1 µM (inactive)

Query :: Any idea what GI50 came out for `CCOC(=O)/C=C(\C(=O)OCC)n1cnc2c(N)ncnc21` on PC-3?
Result :: 13.3 µM (inactive)

Query :: Give recorded GI50 with PC-3 for the following molecule: `C(=C\N1CCCCC1)/c1nnnn1-c1ccccc1`
Result :: 27.7 µM (inactive)

Query :: Which measured GI50 belongs to `C[C@]12CC[C@H]3[C@@H](CCC4=CC(=O)C=C[C@@]43O)[C@@H]1CCC2=O` , tested on PC-3?
Result :: > 100 µM (inactive)

Query :: Field: GI50 (PC-3). Entry: `Cc1c(C)c(C)c(CSC(=N)N)c(C)c1C`
Result :: 12.2 µM (inactive)

Query :: Lab note: need GI50 for `CCOC(=O)c1cc2c(OC)cc(OC)cc2oc1=O` on PC-3, anyone have it?
Result :: > 100 µM (inactive)

Query :: # value lookup — system PC-3, readout GI50, item COC(=O)C12CCC(C(=O)OC)(Cc3c(c4ccccc4n3S(=O)(=O)c3ccccc3)C1)C2=O (stereo not drawn)
Result :: > 63.5 µM (inactive)

Query :: Observed GI50 on PC-3 for CC1CCCC2=C1C(c1ccc(Cl)cc1)n1c(s/c(=C\c3ccc(Cl)cc3)c1=O)=N2 (stereo not drawn) , please.
Result :: > 100 µM (inactive)

Query :: Short answer please: GI50, PC-3, entry n1onc2c1NC1Nc3nonc3NC1N2 (stereo not drawn)
Result :: > 100 µM (inactive)

Query :: Which GI50 is reported with PC-3 for this entry: COc1cc(C2S/C(=C/c3ccccc3)C(=O)N2c2ccccn2)cc(OC)c1OC (stereo not drawn) ?
Result :: 22.4 µM (inactive)

Query :: Param readout = GI50; param system = PC-3; param query = `O=C1c2c(Br)sc(Br)c2[C@@H](Cl)[C@H]1Cl` ; response: value
Result :: 18.7 µM (inactive)

Query :: Which GI50 is reported with PC-3 for this entry: `CCOC(=O)N/N=C(/N)Cc1ccc(Cl)cc1` ?
Result :: > 100 µM (inactive)

Query :: Query for PC-3: what GI50 does the record show for `CC(C)(C)NC(=O)/C(=C\Sc1ccccc1)c1ccc2c(c1)OCO2` ?
Result :: 22.5 µM (inactive)

Query :: Hi! What's the reported GI50 for CO[C@H]1C=C[C@]23c4cc5c(cc4CN(CC2O)[C@@H]3C1)OCO5 (stereo partly drawn) on PC-3?
Result :: 2.39 µM (inactive)

Query :: Can you look up GI50 on PC-3 for `O=C(O)c1cncc(C(=O)O)c1` ?
Result :: > 100 µM (inactive)

Query :: Recorded GI50 for `Cc1ccc(S(=O)(=O)N[C@@H](Cc2ccccc2)C(=O)CCl)cc1` with PC-3, please?
Result :: 15.4 µM (inactive)

Query :: Missing value: GI50, PC-3, entry `CCOc1ccnc2c(OC)c(C)c3nc4ccccc4nc3c12` . Fill in?
Result :: 89.3 µM (inactive)

Query :: Record `CC(C)(C)OC(=O)N/N=C(/N)c1ccccc1` : what is its GI50 with PC-3?
Result :: > 100 µM (inactive)

Query :: Request body: readout GI50, system PC-3, query `N#Cc1nc(C#N)c(NC(=O)c2ccccc2C(=O)O)[nH]1` . Return the value.
Result :: > 100 µM (inactive)

Query :: Checklist item: GI50 tested on PC-3, entry `C/C(=N\O)c1cccc[n+]1Cc1ccccc1` , value?
Result :: > 100 µM (inactive)

Query :: For the record `CCOC(=O)COc1ccc(/C=C/C(=O)c2ccc(OC)cc2)cc1` , what value of GI50 is listed for PC-3?
Result :: 22.9 µM (inactive)

Query :: What measured GI50 is associated with CCOC(=O)CCC(NC(=O)c1ccc(Nc2nc3ccccc3n3cccc23)cc1)C(=O)OCC (stereo not drawn) on PC-3?
Result :: 16.4 µM (inactive)

Sourced from ChEMBL document CHEMBL1201862
